Reference source for all entries: patent US10471082B2

Recorded pIC50 values (DENV-2 protease (Dengue virus type 2, UniProt P14340)) are given below.
pIC50: −log10 of the molar value.

{"molecule": "COCc1cc(C)nc(SCC(=O)c2ccc(O)c(O)c2)c1C#N", "system": "DENV-2 protease (Dengue virus type 2, UniProt P14340)", "pIC50": 4.98}
{"molecule": "O=C(OC[C@H]1OC(OC(=O)c2cc(O)c(O)c(OC(=O)c3cc(O)c(O)c(O)c3)c2)C(OC(=O)c2cc(O)c(O)c(OC(=O)c3cc(O)c(O)c(O)c3)c2)[C@@H](OC(=O)c2cc(O)c(O)c(OC(=O)c3cc(O)c(O)c(O)c3)c2)C1OC(=O)c1cc(O)c(O)c(OC(=O)c2cc(O)c(O)c(O)c2)c1)c1cc(O)c(O)c(OC(=O)c2cc(O)c(O)c(O)c2)c1 (stereo partly shown) [Compound VII, Tannic acid, reference compound]", "system": "DENV-2 protease (Dengue virus type 2, UniProt P14340)", "pIC50": 6.11}
{"molecule": "O=c1c(Oc2ccccc2)c(C(F)(F)F)oc2c(O)c(O)ccc12", "system": "DENV-2 protease (Dengue virus type 2, UniProt P14340)", "pIC50": 5.07}
{"molecule": "CCOC(=O)c1oc2c(O)c(O)ccc2c(=O)c1-c1cnn(-c2ccccc2)c1", "system": "DENV-2 protease (Dengue virus type 2, UniProt P14340)", "pIC50": 5.32}
{"molecule": "Cc1ccc(C2=NC(=O)/C(=C/c3cc(O)c(O)c(Br)c3)S2)cc1", "system": "DENV-2 protease (Dengue virus type 2, UniProt P14340)", "pIC50": 5.47}
{"molecule": "Cc1sc2nc(SCC(=O)c3ccc(O)c(O)c3)[nH]c(=O)c2c1C", "system": "DENV-2 protease (Dengue virus type 2, UniProt P14340)", "pIC50": 5.06}
{"molecule": "Cc1ccc(C(=O)c2cc(O)c(O)c([N+](=O)[O-])c2)cc1 [Compound VI, Tolcapone, reference compound]", "system": "DENV-2 protease (Dengue virus type 2, UniProt P14340)", "pIC50": 6.12}

* * *

Recorded pIC50 values (UniProtKB P17763) are given below.
Sequence (P17763 1394-1440): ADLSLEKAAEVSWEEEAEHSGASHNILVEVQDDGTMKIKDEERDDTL
Sequence (P17763 1476-1653): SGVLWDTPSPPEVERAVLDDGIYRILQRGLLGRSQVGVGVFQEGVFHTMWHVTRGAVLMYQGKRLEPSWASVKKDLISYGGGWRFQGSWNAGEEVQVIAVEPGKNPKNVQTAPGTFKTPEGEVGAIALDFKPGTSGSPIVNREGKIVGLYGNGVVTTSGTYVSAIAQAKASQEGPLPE
pIC50: −log10 of the molar value.

{"compound": "CCOC(=O)c1oc2c(O)c(O)ccc2c(=O)c1-c1cnn(-c2ccccc2)c1 [Compound V]", "pIC50": 5.19}
{"compound": "Cc1ccc(C2=NC(=O)/C(=C/c3cc(O)c(O)c(Br)c3)S2)cc1 [Compound III]", "pIC50": 5.22}

* * *

target: UniProtKB P27915; assay: DENV-3 protease inhibition; type: biochemical, Dengue virus serotype 3
Sequence (P27915 1474-1651): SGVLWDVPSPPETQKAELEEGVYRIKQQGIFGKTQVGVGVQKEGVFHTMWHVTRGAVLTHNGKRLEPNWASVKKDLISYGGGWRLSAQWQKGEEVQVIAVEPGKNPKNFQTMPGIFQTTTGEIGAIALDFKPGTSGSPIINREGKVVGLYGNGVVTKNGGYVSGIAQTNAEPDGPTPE
Sequence (P27915 1392-1438): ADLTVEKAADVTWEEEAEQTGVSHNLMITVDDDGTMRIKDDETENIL
pIC50: −log10 of the molar value.
Entries and their pIC50

{"smiles-str": "Cc1ccc(C2=NC(=O)/C(=C/c3cc(O)c(O)c(Br)c3)S2)cc1", "pIC50": 5.32}
{"smiles-str": "CCOC(=O)c1oc2c(O)c(O)ccc2c(=O)c1-c1cnn(-c2ccccc2)c1", "pIC50": 5.30}
